Entry source: the supplement of paper PMC11208160

assay: recombinant barcode read abundance after kanamycin selection (control-corrected) (log10(CPM+1)); higher = more efficient recombination; sequences stand for … in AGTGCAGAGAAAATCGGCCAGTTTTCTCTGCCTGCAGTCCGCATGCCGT…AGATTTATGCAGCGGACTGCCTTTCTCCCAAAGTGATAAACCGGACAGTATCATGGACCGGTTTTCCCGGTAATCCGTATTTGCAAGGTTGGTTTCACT; site = the 11-nt target
READOUT: recombinant barcode read abundance (log10)
No unit in the answer, please; the number alone is enough.

## Input May I ask what recombinant barcode read abundance (log10) has been recorded for TAGCACCCTTGGGTTCTAACCTGTTGCCG (site TAGCACCCTAG) ?
## Output 0.287

## Input CTAAGGTCTTGGGTTCTAACCTGTTGCTA (site CTAAGGTCTTA) , same question.
## Output 1.64

* * *

experiment: recombinant UMI read abundance after kanamycin selection (control-corrected) (log10(CPM+1)); higher = more efficient recombination; extreme values may be limits of the assay; sequences stand for … in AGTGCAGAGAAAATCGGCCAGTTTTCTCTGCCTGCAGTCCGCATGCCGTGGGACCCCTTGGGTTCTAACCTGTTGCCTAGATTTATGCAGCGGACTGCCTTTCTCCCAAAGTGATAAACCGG…AGGTTGGTTTCACT; site = the 11-nt donor
# recombinant UMI read abundance (log10) annotations
No unit in the answer, please; the number alone is enough.

{"SEQ STRING": "TGTTTCCCATGGACCGGTTTTCCCGGTAATCCGTATTTGTA (site TGTTTCCCTTA)", "recombinant UMI read abundance (log10)": 0.152}

## Input May I ask what recombinant UMI read abundance (log10) has been recorded for ACGAAGACATGGACCGGTTTTCCCGGTAATCCGTATTTGTA (site ACGAAGACTTA) ?
## Output 2.82

## Input GGGGAACCATGGACCGGTTTTCCCGGTAATCCGTATTTGAT (site AGGGAACCTAT) , same question.
## Output 0

## Input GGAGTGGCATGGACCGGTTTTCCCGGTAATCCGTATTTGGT (site GGAGTGGCTTC) , same question.
## Output 0.0104

## Input AAGCACGCATGGACCGGTTTTCCCGGTAATCCGTATTTGGT (site AAGCACGCTTC) , same question.
## Output 0.427

* * *

# recombinant UMI read abundance (log10) annotations
experiment: recombinant UMI read abundance after kanamycin selection (control-corrected) (log10(CPM+1)); higher = more efficient recombination; extreme values may be limits of the assay; sequences stand for … in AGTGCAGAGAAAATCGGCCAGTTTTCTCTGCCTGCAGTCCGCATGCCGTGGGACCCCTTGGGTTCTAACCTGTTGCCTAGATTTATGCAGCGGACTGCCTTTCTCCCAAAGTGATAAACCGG…AGGTTGGTTTCACT; site = the 11-nt donor

Some solved entries appear below for comparison.
{"SEQ STRING": "AATGTGTCATGGACCGGTTTTCCCGGTAATCCGTATTTGCC (site AATGTGTCTGT)", "recombinant UMI read abundance (log10)": 2.16}
{"SEQ STRING": "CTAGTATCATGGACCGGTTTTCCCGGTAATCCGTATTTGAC (site CAAGTCTCTGT)", "recombinant UMI read abundance (log10)": 0}
{"SEQ STRING": "GAATAGCCATGGACCGGTTTTCCCGGTAATCCGTATTTGCA (site GAATCGCCTTG)", "recombinant UMI read abundance (log10)": 0}
{"SEQ STRING": "CACCACACATGGACCGGTTTTCCCGGTAATCCGTATTTGTA (site CTCCACACTTA)", "recombinant UMI read abundance (log10)": 0.179}
{"SEQ STRING": "TACACCGCATGGACCGGTTTTCCCGGTAATCCGTATTTGCG (site TCCACCGCTCG)", "recombinant UMI read abundance (log10)": 0}

Now take the following sequence into account.
## Input May I ask what recombinant UMI read abundance (log10) has been recorded for CATCGAACATGGACCGGTTTTCCCGGTAATCCGTATTTGAT (site CATCGAACTAT) ?
## Output 0.616

* * *

assay: recombinant barcode read abundance after kanamycin selection (control-corrected) (log10(CPM+1)); higher = more efficient recombination; sequences stand for … in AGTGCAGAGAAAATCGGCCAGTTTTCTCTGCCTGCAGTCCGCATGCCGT…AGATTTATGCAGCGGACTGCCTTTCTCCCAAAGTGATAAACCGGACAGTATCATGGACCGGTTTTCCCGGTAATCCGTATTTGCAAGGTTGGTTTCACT; site = the 11-nt target
# recombinant barcode read abundance (log10) annotations
No unit in the answer, please; the number alone is enough.

Some solved entries appear below for comparison.
{"SEQ STRING": "TAATCGGCTTGGGTTCTAACCTGTTGCCT (site TAATCGCCTAG)", "REPORTED": 0.0352}
{"SEQ STRING": "GCGCGCCCTTGGGTTCTAACCTGTTGCTG (site GCGCGCCCTCA)", "REPORTED": 0.331}
{"SEQ STRING": "GTACAGGCTTGGGTTCTAACCTGTTGCAG (site GTACAGGCTCT)", "REPORTED": 0.808}
{"SEQ STRING": "GTCTTACCTTGGGTTCTAACCTGTTGCTT (site GTCTTACCTAA)", "REPORTED": 0.74}

## Input May I ask what recombinant barcode read abundance (log10) has been recorded for CAGCTACCTTGGGTTCTAACCTGTTGCCT (site CCGCTACCTAG) ?
## Output 0.334

## Input GTCGCCACTTGGGTTCTAACCTGTTGCCT (site GTGGCCACTAG) , same question.
## Output 0.159

## Input CTATGACCTTGGGTTCTAACCTGTTGCAT (site CTATGACCTAC) , same question.
## Output 0.139

## Input CCTCGTCCTTGGGTTCTAACCTGTTGCCC (site CCTCGTCCTGG) , same question.
## Output 0.175

## Input CGCTCCTCTTGGGTTCTAACCTGTTGCCT (site TGCTCCTCTAG) , same question.
## Output 0.103

## Input ACCCCGTCTTGGGTTCTAACCTGTTGCCT (site ACCCTGTCTCG) , same question.
## Output 0.0376

## Input TAGTATACTTGGGTTCTAACCTGTTGCTG (site TAGTATACTCA) , same question.
## Output 1.16

## Input AATATAGCTTGGGTTCTAACCTGTTGCTA (site TTCCCCACTAG) , same question.
## Output 0

## Input CACAACACTTGGGTTCTAACCTGTTGCCT (site CACACCACTAG) , same question.
## Output 0.287

## Input CTAGACTCTTGGGTTCTAACCTGTTGCTC (site CTAGACTCTGA) , same question.
## Output 2.84

## Input AACAGACCTTGGGTTCTAACCTGTTGCCT (site CACAGACCTAG) , same question.
## Output 0.116

## Input GGAGTCCCTTGGGTTCTAACCTGTTGCGA (site GGATTCCCTTG) , same question.
## Output 0.0458

## Input CTACACACTTGGGTTCTAACCTGTTGCTC (site CTACACACTGA) , same question.
## Output 1.64

## Input ACGACTCCTTGGGTTCTAACCTGTTGCTT (site ACGAATCCTAA) , same question.
## Output 0.224

## Input AGTGAATCTTGGGTTCTAACCTGTTGCCT (site AGAGAATCTAG) , same question.
## Output 0.13

## Input GGGGATCCTTGGGTTCTAACCTGTTGCCT (site GAGGATCCTAG) , same question.
## Output 0.679

## Input GTAATCCCTTGGGTTCTAACCTGTTGCCA (site GTAATCCCTCG) , same question.
## Output 0.173

## Input CAAAGAGCTTGGGTTCTAACCTGTTGCTG (site GTCCAGCCTGT) , same question.
## Output 0.0339

## Input GGGGTATCTTGGGTTCTAACCTGTTGCCT (site GGGGTATCTAG) , same question.
## Output 1.21

* * *

test: recombinant barcode read abundance after kanamycin selection (control-corrected) (log10(CPM+1)); higher = more efficient recombination; sequences stand for … in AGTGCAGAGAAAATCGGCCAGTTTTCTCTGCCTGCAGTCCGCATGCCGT…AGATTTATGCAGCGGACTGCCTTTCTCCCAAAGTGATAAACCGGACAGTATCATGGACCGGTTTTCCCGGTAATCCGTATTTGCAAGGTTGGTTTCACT; site = the 11-nt target
READOUT: recombinant barcode read abundance (log10)
No unit in the answer, please; the number alone is enough.

Some solved entries appear below for comparison.
{"SEQ STRING": "GTAACGACTTGGGTTCTAACCTGTTGCCA (site GTGAGGACTTG)", "REPORTED": 0.0765}
{"SEQ STRING": "TAACCTACTTGGGTTCTAACCTGTTGCAT (site TAACCTACTAT)", "REPORTED": 0.802}
{"SEQ STRING": "GGCTAGACTTGGGTTCTAACCTGTTGCGG (site GGCTCTACTCC)", "REPORTED": 0.0457}
{"SEQ STRING": "AATGGGCCTTGGGTTCTAACCTGTTGCCT (site AATGGGTCTAG)", "REPORTED": 0.201}
{"SEQ STRING": "ACCCTTACTTGGGTTCTAACCTGTTGCCT (site ATCCTTACTAG)", "REPORTED": 0.142}
{"SEQ STRING": "ACATTAGCTTGGGTTCTAACCTGTTGCTG (site ACAATAGCTCA)", "REPORTED": 0.182}
{"SEQ STRING": "TCTCAACCTTGGGTTCTAACCTGTTGCCT (site TCTCAACCTAG)", "REPORTED": 1.33}
{"SEQ STRING": "ATAAGCTCTTGGGTTCTAACCTGTTGCCG (site GAGCAACCTAA)", "REPORTED": 0.0688}

## Input May I ask what recombinant barcode read abundance (log10) has been recorded for ATAGGAACTTGGGTTCTAACCTGTTGCCT (site ATAGGAACTAG) ?
## Output 1.4

## Input CCGTCTACTTGGGTTCTAACCTGTTGCCA (site CCGTCTACTTG) , same question.
## Output 0.121
